Tested on: 786-0
method notes: NCI tumour cell line growth inhibition, 48 h
The source made the active and inactive calls. Rule as the data show it: active = GI50 up to about 1.1 µM and inactive = higher. Where a SMILES comes first, the peptide text is derived from it. [ ]: non-standard residue; d: D form. The star is where a group is joined. Chg = N[CH](C(=O)O)C1CCCCC1; Cbz = O=C(OCc1ccccc1)*; OBn = c1ccc(CO*)cc1
Bench note: report the call from Y (active), N (inactive)

Any idea what this test logged for `COc1ccc2[nH]c3c(C)c4cc[n+](COC(=O)c5ccccc5)cc4c(C)c3c2c1` ?
Y

Any idea what this test logged for `CN(C)Cc1cc(C(=O)/C=C/c2ccc(Cl)cc2Cl)cc(CN(C)C)c1O` ?
N

Any idea what this test logged for `CCN(CC)CCNc1n[n+]([O-])c2ccccc2[n+]1[O-]` ?
N

Any idea what this test logged for COC(=O)C(Cc1c[nH]c2ccccc12)NP(=O)(O)OCC1OC(n2cc(F)c(=O)[nH]c2=O)CC1O (stereo not drawn) ?
N

Any idea what this test logged for `O=C(CCC(=O)Nc1cccc(Cl)c1)CC(=O)c1ccc(F)cc1` ?
N

Any idea what this test logged for `CC(C)c1ccc2nc3ccc(C(=O)NCCN4CCN(c5ccccc5)CC4)cn3c(=O)c2c1` ?
N

Any idea what this test logged for `O=C(Cc1ccccc1)NS(=O)(=O)c1ccccc1` ?
N

Any idea what this test logged for `Nc1ccc(Nc2nc(F)nc(-c3c4ccccc4c4n3CCS4)n2)cc1` ?
N

Any idea what this test logged for `COc1cc2ccccc2c2cc([N+](=O)[O-])oc12` ?
Y

Any idea what this test logged for CC1(C)CCC(C)(C)C1C(=O)NC(O)C(=O)O (stereo not drawn) ?
N

New cases:
Any idea what this test logged for COC(=O)C(NC(=O)C(CC(=O)OCc1ccccc1)NC(=O)OCc1ccccc1)C1CCCCC1 (stereo not drawn) (Cbz-Asp(OBn)-[Chg]-OMe; configuration not given here) ?
N

Any idea what this test logged for `CN1COCc2cc3cc4c(cc3nc21)OCCO4` ?
N

---

Reported values: GI50 for HCT-15, one per item.

Supply recorded GI50 for `O=C(NO)C(=O)Nc1ccc(Cl)cc1[N+](=O)[O-]` here.
> 100 µM

Supply recorded GI50 for `O=C(OCc1ccccc1)N1CCCc2c(n(S(=O)(=O)c3ccccc3)c3ccccc23)C1` here.
> 100 µM

New cases:
Supply recorded GI50 for `O=c1c2ccccc2nc(-c2ccccc2)n1NC(=S)Nc1ccccc1` here.
> 100 µM

Supply recorded GI50 for `O=CNCCCN1CCN(CCCNC=O)CC1` here.
> 100 µM

Supply recorded GI50 for `C[C@]12CC[C@@H]3c4ccc(OCC(=O)O)cc4CC[C@H]3[C@@H]1CCC2=O` here.
> 100 µM

Supply recorded GI50 for COC1C2c3cc4c(cc3CC(C#N)(c3ccccc32)N1C(=O)c1ccccc1)OCO4 (stereo unspecified) here.
> 100 µM

---

Listed below: GI50 values for each entry.
Tested on: Malme-3M
method notes: NCI tumour cell line growth inhibition, 48 h
The source made the active and inactive calls. Rule as the data show it: active = GI50 up to about 1.1 µM and inactive = higher.

Consider the worked cases shown below.
Supply recorded GI50 for `CC(=O)c1cccc(C)c1C(=O)O` here.
> 100 µM (inactive)

Supply recorded GI50 for `CN(C)c1ccc(/C=C(\C#N)C(N)=C(C#N)C#N)cc1` here.
32 µM (inactive)

Supply recorded GI50 for `CCSC1=N/C(=C/c2ccccc2O)C(=O)N1` here.
> 100 µM (inactive)

Supply recorded GI50 for Nc1nc(N)c2ncn(CC(CO)CC(c3ccccc3)P(=O)(O)O)c2n1 (stereo not drawn) here.
> 100 µM (inactive)

Supply recorded GI50 for `COC(=O)NC12CC3CC(CC(F)(C3)C1)C2` here.
> 100 µM (inactive)

New cases:
Supply recorded GI50 for C#CCOC(=O)C(N)CS (stereo not drawn) here.
> 100 µM (inactive)

Supply recorded GI50 for CCOP(=O)(OCC)OC1c2[nH]ccc2-c2cc(C(=O)OC)[nH]c2C1OC (stereo not drawn) here.
> 100 µM (inactive)
